Each recorded value in this set is attributed to PubChem BioAssay.

- testDetails: viability loss with induced miR-34 in A549 – imaging, A549 dox-inducible miR-34, nuclei and caspase counts, primary screen (AID 1347080)
- runConditions: A549 miR-34 inducible, Hoechst nuclei count, 48 h; stronger effect = lower value; cell number ratio, induced over uninduced
Could you mark each record satisfied if its fold change falls strictly under 0.9, and not satisfied if it equals or exceeds it?

The examples below pair each entry with its known result.
# molecule, categoryLabel
measured = [
    ("COc1cc(C2c3cc4c(cc3C(O[C@@H]3O[C@@H]5COC(C)O[C@H]5C(O)C3O)[C@H]3COC(=O)[C@H]23)OCO4)cc(OC)c1O (stereo partly drawn)", "not satisfied"),
    ("Nc1nonc1C(=Nc1ccc(F)c(Cl)c1)NO", "satisfied"),
    ("Cc1cc(-c2cnn(C)c2)nc(N)n1", "satisfied"),
]

For this molecule, is fold change lower than 0.9? COC(=O)Nc1nc2ccc(SC(C)C)cc2[nH]1
not satisfied

For this molecule, is fold change lower than 0.9? CCC(=O)OCC(=O)[C@@]1(OC(=O)CC)[C@@H](C)C[C@H]2[C@@H]3CCC4=CC(=O)C=C[C@]4(C)C3(F)[C@@H](O)C[C@@]21C (stereo partly drawn)
satisfied

For this molecule, is fold change lower than 0.9? COc1ccc(CCn2nnnc2C2(c3ccc(C)cc3)CC2)cc1
not satisfied

For this molecule, is fold change lower than 0.9? C=C(NC(=O)C(=C)NC(=O)c1csc(C2=N[C@H]3c4csc(n4)[C@H]4NC(=O)c5csc(n5)[C@H]([C@@](C)(O)[C@@H](C)O)NC(=O)[C@H]5CSC(=N5)/C(=C\C)NC(=O)[C@H]([C@@H](C)O)NC(=O)c5csc(n5)[C@]3(CC2)NC(=O)[C@H](C)NC(=O)C(=C)NC(=O)[C@H](C)NC(=O)[C@H](C(C)CC)N[C@@H]2C=Cc3c([C@H](C)O)cc(nc3[C@H]2O)C(=O)O[C@@H]4C)n1)C(N)=O (stereo partly drawn)
satisfied

For this molecule, is fold change lower than 0.9? CCCCC/C=C\C[C@@H](O)/C=C/C=C\C/C=C\CCCC(=O)O
satisfied

---

- testDetails: growth inhibition, MDA-MB-436, cell-based, BGB or cisplatin combos, synergistic combos for chromothripsis tumors (AID 1671458);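 further: cells exposed for 96 hours; 0% = vehicle DMSO and 100% = killing by high DMSO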
- runConditions: MDA-MB-436 breast carcinoma growth inhibition, drug combinations; measured here: cisplatin combination; at 0.5 µM; stronger effect = higher value
# cutoff -30% applies to inhibition; >= gives YES, < gives NO

# compound, categoryLabel
rows = [
    ("CON=C1CN(c2nc3c(cc2F)c(=O)c(C(=O)O)cn3C2CC2)CC1CN (stereo unspecified)", "YES"),
    ("CC1OC(n2cc(F)c(=O)[nH]c2=O)C(O)C1O (stereo unspecified)", "NO"),
    ("Cc1cn(C2CC(O)C(COP(=O)(O)OP(=O)(O)OP(=O)(O)O)O2)c(=O)[nH]c1=O (stereo unspecified)", "YES"),
    ("Nc1ncn(C2OC(CO)C(O)C2O)c(=O)n1 (stereo unspecified)", "YES"),
    ("O=C(O)c1cc2cccc([N+](=O)[O-])c2[nH]1", "YES"),
]

Please examine the following record next.
Evaluate Cc1ccc([N+](=O)[O-])cc1S(=O)(=O)N(C)/N=C\c1cnc2ccc(Br)cn12 : inhibition at minimum -30%?
YES

---

- testDetails: viability loss with induced miR-34 in A549 – imaging, A549 dox-inducible miR-34, nuclei and caspase counts, primary screen (AID 1347080)
- runConditions: A549 miR-34 inducible, Hoechst nuclei count, 48 h; stronger effect = lower value; cell number ratio, induced over uninduced
quantityKind: fold change
Number only, please.

Example entries begin here.
# molecule, quantityKind, endpointValue
records = [
    ("COc1cc(N2CCN(Cc3ccccc3F)C(=O)C2)ncn1", "fold change", 0.848),
    ("C=C1C(=CC=C2CCC[C@@]3(C)C2CCC3C(C)C=CC(O)C2CC2)CC(O)CC1O (stereo partly specified)", "fold change", 1.02),
    ("CCN(CC)C(=O)C(C#N)=Cc1cc(O)c(O)c([N+](=O)[O-])c1", "fold change", 1.2),
    ("C=C[C@@]1(C)CC(=O)[C@]2(O)[C@@]3(C)[C@H](O)CCC(C)(C)[C@@H]3[C@H](O)[C@H](OC(C)=O)[C@@]2(C)O1", "fold change", 0.854),
    ("CCCCCCCCCCCCCCCCOCC(CO)OC (stereo unspecified)", "fold change", 1.02),
]

For O=C(OC1CC2CC3CC(C1)N2CC3=O)c1c[nH]c2ccccc12 (stereo unspecified) , write its fold change.
0.871

For CN(Cc1noc(C2CCCC2)n1)C(=O)c1nc(=O)[nH]c2ccccc12 , write its fold change.
0.914

For CC1=NN(c2ccc(C(=O)O)cc2)C(=O)C1=Cc1ccc(-c2cc(C)c(C)cc2[N+](=O)[O-])o1 , write its fold change.
0.902

For CCC(C)CC(C)CCCCCCCCC(=O)NC1CC(O)C(NCCN)NC(=O)[C@@H]2C(O)CCN2C(=O)[C@@H](C(O)CCN)NC(=O)[C@H](C(O)C(O)c2ccc(O)cc2)NC(=O)[C@@H]2CC(O)CN2C(=O)[C@H](C(C)O)NC1=O (stereo partly specified) , write its fold change.
0.95

For COC(=O)[C@@H]1CC(=O)O[C@H](C)C/C=C/C=C/[C@H](O)[C@H](C)C[C@H](CC=O)[C@H](OC2O[C@H](C)[C@@H](OC3C[C@@](C)(O)[C@@H](OC(=O)CC(C)C)[C@H](C)O3)[C@H](N(C)C)[C@H]2O)[C@H]1OC (stereo partly specified) , write its fold change.
0.948

For CNC(=O)c1ccccc1Sc1ccc2c(C=Cc3ccccn3)n[nH]c2c1 , write its fold change.
0.918

For COc1cc(C2Oc3cc(C4Oc5cc(O)cc(O)c5C(=O)C4O)ccc3OC2CO)ccc1O (stereo unspecified) , write its fold change.
0.923

For Cc1nn(C)cc1-c1ccnc(NCc2nc(Cc3ccccc3)no2)n1 , write its fold change.
0.883

---

- testDetails: MELAS cybrid and Rieske KO viability enhancers – cell-based, MELAS cybrids, Rieske KO mouse fibroblasts, CellTiter-Glo, primary screen (AID 1508586);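 further: z relative to plate mean and SD of compound and empty wells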
- runConditions: Rieske KO mouse fibroblast survival, low glucose, CellTiter-Glo 72 h
Response field class: enum, chosen by comparing z-score against LOW = under 0.04, MEDIUM = from 0.04 up to 0.4, HIGH = 0.4 and over

The examples below pair each entry with its known result.
# compound, categoryLabel
data = [
    ("CO[C@@]1(NC(=O)[C@H](C(=O)O)c2ccc(O)cc2)C(=O)N2C(C(=O)O)=C(CSc3nnnn3C)CO[C@@H]21", "LOW"),
    ("Cc1onc(-c2c(F)cccc2Cl)c1C(=O)N[C@@H]1C(=O)N2C(C(=O)O)C(C)(C)S[C@H]12 (stereo not given in full)", "MEDIUM"),
    ("CC1(C)O[C@H]2CC(=O)OC[C@]23[C@H]2CC[C@@]4(C)C(c5ccoc5)OC(=O)C5O[C@]54[C@@]2(C)C(=O)C[C@@H]13 (stereo not given in full)", "LOW"),
    ("CCNC(=O)c1cccnc1N1CCN(c2ccc(C)cc2C)CC1", "MEDIUM"),
    ("O=S(=O)(O)c1cccc2cccc(Nc3ccccc3)c12", "LOW"),
]

Each compound maps to one class by z-score. Which class for CCCC(C)NC(=O)c1ccc(Cl)c(Cl)c1 (stereo not given) ?
HIGH

Each compound maps to one class by z-score. Which class for O=C1CCNC(=O)N1 ?
MEDIUM

Each compound maps to one class by z-score. Which class for COc1ccccc1-c1ccc(C(=O)O)o1 ?
HIGH

---

- testDetails: viability loss with induced miR-34 in A549 – imaging, A549 dox-inducible miR-34, nuclei and caspase counts, primary screen (AID 1347080)
- runConditions: A549 miR-34 inducible, Hoechst nuclei count, 48 h; cell number ratio, induced over uninduced
Calls of active or inactive are those of the source.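 Rule for the calls: active = compounds whose cell count with miR-34 switched on is under 0.7 times the count with it off; inactive = the rest.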
Returns: one label drawn from class 1 = active, class 0 = inactive

# molecule, categoryLabel
data = [
    ("COc1ccc(CNc2nc(N3CCCC3CO)ncc2C(=O)NCc2ncccn2)cc1Cl (stereo unspecified)", "class 0"),
    ("Cc1cc(C)c(S(=O)(=O)n2cc(C)cc2C)c(C)c1", "class 0"),
    ("Nc1nc(Cl)nc2c1ncn2[C@@H]1O[C@H](CO)[C@H](O)C1O (stereo partly specified)", "class 0"),
    ("CCn1cnc(NC(=O)N(C)CC2Cc3ccccc3O2)n1 (stereo unspecified)", "class 0"),
    ("CCOC(=O)O[C@]1(C(=O)OCCl)CCC2C3CCC4=CC(=O)C=C[C@]4(C)C3C(O)C[C@@]21C (stereo partly specified)", "class 0"),
]

# lookup: test call for O=C1OC(CN2CCOCC2)CN1N=Cc1ccc([N+](=O)[O-])o1 (stereo unspecified)
class 0
